Cited source: paper PMC11982978

assayed-target: ERK2 E322K (Mus musculus, UniProt P63085, E320K)
Construct: His6; made in house; host or cells: E. coli BL21(DE3), co-expressed with GST-MEK1ΔN3
Sequence (P63085 whole entry E320K): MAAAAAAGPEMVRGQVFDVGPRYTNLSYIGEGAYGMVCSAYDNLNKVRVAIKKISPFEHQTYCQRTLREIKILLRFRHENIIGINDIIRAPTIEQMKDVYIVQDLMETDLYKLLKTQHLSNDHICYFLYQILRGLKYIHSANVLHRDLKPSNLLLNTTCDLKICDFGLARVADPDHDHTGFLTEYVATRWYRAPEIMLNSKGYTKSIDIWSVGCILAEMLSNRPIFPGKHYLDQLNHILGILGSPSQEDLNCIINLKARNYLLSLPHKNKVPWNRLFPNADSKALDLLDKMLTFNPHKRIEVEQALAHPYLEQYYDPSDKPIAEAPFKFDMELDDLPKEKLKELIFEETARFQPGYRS
protocol-notes: Competitive peptide kinase assay (D-peptide inhibition), ERK2 E322K
Type: biochemical
run-conditions: Table S1, 5 μM reporter peptide, 10 nM ERK2, 10 μM ATP, three independent experiments
Peptide text beside a SMILES is read from it.
Form field: pIC50 (one value per entry).
Notebook: values listed as pIC50 are -log10 of the concentration (mol/L).

compound="CC[C@H](C)[C@H](NC(=O)[C@@H](NC(=O)[C@H](CCC(=O)O)NC(=O)[C@H](CCSC)NC(=O)[C@H](CCC(N)=O)NC(=O)[C@H](CCCNC(=N)N)NC(=O)[C@H](CCCNC(=N)N)NC(=O)[C@H](CC(N)=O)NC(=O)[C@H](CCCNC(=N)N)NC(=O)[C@H](CC(C)C)NC(=O)[C@H](C)NC(=O)[C@@H](N)Cc1ccc(O)cc1)C(C)C)C(=O)N[C@@H](CO)C(=O)N[C@@H](CC(C)C)C(=O)N[C@@H](CCCNC(=N)N)C(=O)N[C@@H](CC(C)C)C(=O)O [DISC1] (H-YALRNRRQMEVISLRL-OH)" recorded_number=3.96

Let us move to another entry and its pIC50.
Field pIC50 (ERK2 E322K (Mus musculus, UniProt P63085, E320K)), entry CC[C@H](C)[C@H](NC(=O)[C@H](C)NC(=O)[C@@H](N)Cc1ccc(O)cc1)C(=O)N[C@@H](CCCCN)C(=O)NCC(=O)N[C@@H](CCCCN)C(=O)N[C@@H](CCCNC(=N)N)C(=O)N[C@@H](CCCNC(=N)N)C(=O)N[C@@H](CCCNC(=N)N)C(=O)N[C@@H](CCCCN)C(=O)N[C@@H](CCCCN)C(=O)N[C@@H](CC(C)C)C(=O)N[C@H](C(=O)N[C@@H](CC(C)C)C(=O)N[C@@H](C)C(=O)N[C@@H](CCCCN)C(=O)O)[C@@H](C)CC [ZBED6] (H-YAIKGKRRRKKLILAK-OH) : 4.25
